Tested on: Colo320
Assay: cells
Type: cell-based
Conditions: Homo sapiens, COLO 320, 72 h, read-out: Colo320 viab. IC50
pIC50: −log10 of the molar value.
parameter-measured: pIC50

compound	parameter-measured	quantitative-readout
COc1cc(NCc2ccc3nc(N)nc(N)c3c2C)cc(OC)c1OC [trimetrexate, reference compound]	pIC50	6.41
O=C(NOCC1CC1)c1ccc(F)c(F)c1Nc1ccc(I)cc1Cl [PD-184352, reference compound]	pIC50	6.07

* * *

The entries below are paired with their reported IC50.
System: DLD-1
Test: cells
Format: cell-based
Conditions: Homo sapiens, DLD-1, basal; read-out: Basal_Viability ATP DLD-1

compound	measurement-units	censoring-sign	IC50
O=C(Nc1ccc(Oc2ccc(Cl)cc2)c(Cl)c1)c1cc(I)cc(I)c1O [Rafoxanide]	nM	=	8.4
COc1cccc2c1C(=O)c1c(O)c3c(c(O)c1C2=O)C[C@@](O)(C(C)=O)C[C@@H]3O[C@H]1C[C@H](N)[C@H](O)[C@H](C)O1	nM	=	188
O=c1[nH]c(=O)n([C@H]2C[C@H](O)[C@@H](CO)O2)cc1Br	nM	>	20000
Cc1ccc(CCn2c3c(c4cc(Cl)ccc42)CN(C)CC3)cn1	nM	>	20000
COc1ccc(-c2nc3ccc(C4=NNC(=O)CC4C)cc3[nH]2)cc1 (centres unmarked)	nM	>	20000

* * *

The entries below are paired with their reported IC50.
Molecular target: hFLT3 (Homo sapiens, UniProt P36888)
Construct: purchased Cerep (LANCE kinase assay platform, contract assay)
Sequence (P36888 27-993): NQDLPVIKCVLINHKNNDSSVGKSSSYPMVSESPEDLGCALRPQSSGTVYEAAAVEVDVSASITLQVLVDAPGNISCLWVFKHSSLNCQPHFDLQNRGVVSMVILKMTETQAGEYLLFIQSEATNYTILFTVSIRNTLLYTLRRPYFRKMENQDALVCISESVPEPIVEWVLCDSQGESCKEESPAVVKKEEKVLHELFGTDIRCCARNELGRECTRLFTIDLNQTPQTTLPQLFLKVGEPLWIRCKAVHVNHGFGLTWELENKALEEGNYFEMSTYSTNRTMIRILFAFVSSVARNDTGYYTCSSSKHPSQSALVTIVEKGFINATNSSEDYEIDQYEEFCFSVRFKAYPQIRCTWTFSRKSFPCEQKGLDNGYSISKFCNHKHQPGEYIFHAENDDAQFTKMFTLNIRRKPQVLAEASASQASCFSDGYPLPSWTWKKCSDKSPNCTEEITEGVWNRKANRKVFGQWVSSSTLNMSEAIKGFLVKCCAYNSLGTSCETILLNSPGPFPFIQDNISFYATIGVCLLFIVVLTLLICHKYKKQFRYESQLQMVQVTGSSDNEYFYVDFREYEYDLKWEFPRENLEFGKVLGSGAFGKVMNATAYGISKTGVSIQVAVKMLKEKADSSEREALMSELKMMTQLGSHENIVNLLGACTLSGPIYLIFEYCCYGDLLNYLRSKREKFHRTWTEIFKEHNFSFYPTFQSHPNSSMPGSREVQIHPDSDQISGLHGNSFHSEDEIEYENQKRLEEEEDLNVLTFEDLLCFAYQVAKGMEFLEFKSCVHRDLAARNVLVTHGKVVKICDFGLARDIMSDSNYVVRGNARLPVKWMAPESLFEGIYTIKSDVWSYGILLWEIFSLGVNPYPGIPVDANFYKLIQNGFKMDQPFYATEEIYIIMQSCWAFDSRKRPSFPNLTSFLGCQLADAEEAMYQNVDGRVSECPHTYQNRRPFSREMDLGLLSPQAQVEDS
Assay: Cerep LANCE kinase assay hFLT3 (S1 assay 35)
Format: biochemical
Conditions: read-out: FLT3
Counter-ions that a name gives are not always drawn.

compound	system-tested	IC50
Cc1cc(O)c2ccccc2c1O	hFLT3 (Homo sapiens, UniProt P36888)	> 20 µM
CCCCCCCCCCCCCCCCNc1ccc(C(=O)O)cc1 [cetaben sodium, sodium p-(hexadecylamino) benzoate, reference compound]	hFLT3 (Homo sapiens, UniProt P36888)	> 20 µM
[O-][n+]1ccccc1SSc1cccc[n+]1[O-] [Dipyrithione magnesium sulfate]	hFLT3 (Homo sapiens, UniProt P36888)	> 20 µM

* * *

Test system: endothelial tube formation in co-cultures of ECFCs and ADSCs treated with VEGF
Experiment: cells
Assay type: cell-based, human
Details: Homo sapiens, read-out: Anti-Angiogenesis
The entries below are paired with their reported IC50.

molecule	IC50 / nM
Sc1ncnc2nc[nH]c12	915
Cc1nc2ccc(CN(C)c3ccc(C(=O)N[C@@H](CCC(=O)O)C(=O)O)s3)cc2c(=O)[nH]1 [raltitrexed, reference compound]	354
CCC(C)n1ncn(-c2ccc(N3CCN(c4ccc(OCC5COC(Cn6cncn6)(c6ccc(Cl)cc6Cl)O5)cc4)CC3)cc2)c1=O (centres unmarked)	1550
O=C(Nc1ccc([N+](=O)[O-])cc1Cl)c1cc(Cl)ccc1O [Niclosamide]	112
Cc1cc(O)c2c3c4c(cc(O)c13)C(C)(C)C(=O)c1c(O)cc(O)c(c1-4)C2=O	100

* * *

Molecular target: hKDR (Homo sapiens)
Construct: purchased Cerep (LANCE kinase assay platform, contract assay)
Sequence (P35968 20-1356): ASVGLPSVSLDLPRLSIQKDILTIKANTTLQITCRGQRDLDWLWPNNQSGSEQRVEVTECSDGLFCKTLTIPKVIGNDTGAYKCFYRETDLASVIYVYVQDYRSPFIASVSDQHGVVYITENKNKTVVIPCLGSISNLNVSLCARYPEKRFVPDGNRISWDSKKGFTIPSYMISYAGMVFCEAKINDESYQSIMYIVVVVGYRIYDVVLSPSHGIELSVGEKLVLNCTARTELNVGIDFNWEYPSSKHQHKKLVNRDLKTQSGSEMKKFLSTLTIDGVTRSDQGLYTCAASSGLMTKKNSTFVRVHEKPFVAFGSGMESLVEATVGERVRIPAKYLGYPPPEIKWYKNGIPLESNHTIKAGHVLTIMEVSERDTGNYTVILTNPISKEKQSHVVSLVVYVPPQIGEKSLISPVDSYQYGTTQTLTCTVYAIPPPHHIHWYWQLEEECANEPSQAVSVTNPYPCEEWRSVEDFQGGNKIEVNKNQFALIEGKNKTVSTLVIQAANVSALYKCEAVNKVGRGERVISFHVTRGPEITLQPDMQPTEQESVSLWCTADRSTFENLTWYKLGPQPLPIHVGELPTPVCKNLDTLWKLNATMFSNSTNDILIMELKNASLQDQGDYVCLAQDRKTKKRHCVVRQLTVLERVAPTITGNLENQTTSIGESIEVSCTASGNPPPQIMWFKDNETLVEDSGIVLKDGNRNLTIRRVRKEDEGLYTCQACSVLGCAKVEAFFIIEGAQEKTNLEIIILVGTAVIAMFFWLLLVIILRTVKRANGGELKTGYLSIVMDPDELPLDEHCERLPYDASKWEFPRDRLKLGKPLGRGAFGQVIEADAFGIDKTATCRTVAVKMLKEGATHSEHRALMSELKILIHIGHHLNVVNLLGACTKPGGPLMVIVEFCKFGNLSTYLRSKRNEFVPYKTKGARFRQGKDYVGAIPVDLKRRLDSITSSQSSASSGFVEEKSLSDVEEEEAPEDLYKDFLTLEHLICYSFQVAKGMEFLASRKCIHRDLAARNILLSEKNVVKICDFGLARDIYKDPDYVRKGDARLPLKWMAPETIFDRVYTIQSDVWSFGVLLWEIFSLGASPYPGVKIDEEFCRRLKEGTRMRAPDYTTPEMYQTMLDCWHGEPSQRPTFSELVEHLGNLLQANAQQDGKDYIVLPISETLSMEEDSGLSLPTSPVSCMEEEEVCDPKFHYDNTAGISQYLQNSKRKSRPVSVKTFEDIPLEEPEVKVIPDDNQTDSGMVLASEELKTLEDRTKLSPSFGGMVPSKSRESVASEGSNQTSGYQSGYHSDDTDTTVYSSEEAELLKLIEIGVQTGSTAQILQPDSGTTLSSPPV
Assay: Cerep LANCE kinase assay hKDR (S1 assay 32)
Assay type: biochemical
The entries below are paired with their reported IC50/EC50, hKDR LANCE (assay number 32).

compound	IC50/EC50, hKDR LANCE (assay number 32)
COC(=O)Nc1nc2ccc([S+]([O-])c3ccccc3)cc2[nH]1 (stereo not drawn)	> 20 µM
CCCSc1ccc2nc(NC(=O)OC)[nH]c2c1	> 20 µM
O=c1c(-c2ccccc2)c1-c1ccccc1	> 20 µM
CCN(CC)CCNc1ccc(CO)c2sc3ccccc3c(=O)c12	> 20 µM
O=[N+]([O-])c1ccc(O)c2ncccc12	> 20 µM
COC(=O)Nc1nc2ccc(Sc3ccccc3)cc2[nH]1	> 20 µM
C[n+]1c2cc(N)ccc2cc2ccc(N)cc21	> 20 µM
Cn1cnc([N+](=O)[O-])c1Sc1ncnc2nc[nH]c12	> 20 µM
COC(=O)c1nc(Cl)c(Cl)nc1N	> 20 µM
NC(=NCCCCCCN=C(N)/N=C(\N)Nc1ccc(Cl)cc1)/N=C(\N)Nc1ccc(Cl)cc1	> 20 µM
COC(=O)Nc1nc2ccc(C(=O)c3cccs3)cc2[nH]1	6.61 µM
O=c1[nH]c(=O)n([C@H]2C[C@H](O)[C@@H](CO)O2)cc1F	> 20 µM
CCc1nc(N)nc(N)c1-c1ccc(Cl)cc1	> 20 µM
COC(=O)Nc1nc2ccc(C(=O)c3ccccc3)cc2[nH]1	1.43 µM
COC(=O)Nc1nc2ccc(C(=O)C3CC3)cc2[nH]1	15.14 µM
